# assay_name: MRT (0 to infinity) in C57 mouse at 1 mg/kg, iv measured for 20 mins by LC-MS/MS analysis
# Type: ADME, organism-based
# condition_context: in vivo
assay_metric: MRT inf (min)

- O=C(/C=C/c1ccc(O)cc1)NCCc1cn(Cc2cccc(Br)c2)c2ccccc12: 27

###

# assay_name: AUC (0 to t) in C57 mouse at 10 mg/kg, po measured for 20 mins by LC-MS/MS analysis
# Type: ADME, organism-based
# Set-up: time 20 min, dose 10 mg/kg, route po
# condition_context: in vivo
assay_metric: AUC(0-t) at 20 min (ng·h/mL)

• O=C(/C=C/c1ccc(O)cc1)NCCc1cn(Cc2cccc(Br)c2)c2ccccc12 = 261

From: ChEMBL document CHEMBL5360573
